- subject of test: CD276, Q5ZPR3
- Sequence (Q5ZPR3 whole entry): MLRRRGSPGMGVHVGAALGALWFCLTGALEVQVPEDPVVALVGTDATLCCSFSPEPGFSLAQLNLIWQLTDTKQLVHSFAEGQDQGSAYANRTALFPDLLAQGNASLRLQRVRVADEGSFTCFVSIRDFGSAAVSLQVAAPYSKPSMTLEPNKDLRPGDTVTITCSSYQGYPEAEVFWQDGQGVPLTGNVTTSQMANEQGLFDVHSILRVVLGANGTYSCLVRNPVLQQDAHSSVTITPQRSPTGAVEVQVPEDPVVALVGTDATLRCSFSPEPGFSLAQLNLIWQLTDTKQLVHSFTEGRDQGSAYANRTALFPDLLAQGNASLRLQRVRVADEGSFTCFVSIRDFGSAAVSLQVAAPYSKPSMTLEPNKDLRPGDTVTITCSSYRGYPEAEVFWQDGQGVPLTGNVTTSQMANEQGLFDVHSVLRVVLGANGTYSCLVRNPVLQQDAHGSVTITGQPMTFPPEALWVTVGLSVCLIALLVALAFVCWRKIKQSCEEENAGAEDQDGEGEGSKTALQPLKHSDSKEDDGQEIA
measured metric: binding in a display sort

INSERT INTO results (binder, measured_result) VALUES
  ('d6r1_design_ppi_1146_dldesign_0_cycle1_af2pred (protein) AEEEAAKLKAQADGLDTIATALIEQAKTGDAAVARGAAAAAVSLAKKAAELYKRAAKLAGDEKFGKEQAKKQKAKAKEAKEVAEKKAA', 'not found (inactive)'),
  ('d1r7_design_ppi_147_dldesign_0_cycle1_af2pred (protein) AAAAAKATAKQIAAIAEEAIAKVKAATPEEAKKIAAEANQQIRALAAAAAAAHPEVAAAVAAAATAAIQRVLSTAIEVVSA', 'not found (inactive)'),
  ('d1r8_design_ppi_679_dldesign_0_cycle0_af2pred (protein) AEAQKLLEKAKKLAEEAKKIAKESGDEEAKRIAEGAKKMAELAKAALAAGDSAAAMQAYLAGVKTLYEAAKEEAKRKA', 'not found (inactive)');

Values were extracted from paper PMC13494018.
